Origin of the recorded values: patent US9242977B2

Test system: NGF-induced vascular hyper permeability
Assay: Suppression of rat NGF-induced vascular hyper permeability (in vivo test, Evans Blue)
Settings: oral, 12 hours after administration, read-out: Rates of Suppression for Vascular Hyper Permeability (%)
# inhibition in vivo at 1 mg/kg values compiled below
Just the number please, in %, no unit attached.

Some solved entries appear below for comparison.
q: Consider the compound CCNc1ncc(-c2ccc(Oc3ncc(NC(=O)Nc4cc(C(F)(F)F)cnc4-c4ccc(C)cc4)cn3)cc2)s1 [Example 23] and give its measured inhibition in vivo at 1 mg/kg.
a: 78

q: Again, but for O=C(Nc1cnc(Oc2ccc(-c3cnc(N4CCCC4=O)s3)cc2)nc1)Nc1cc(C(F)(F)F)ccc1-c1cccnc1 [Example 84-3]
a: 94

q: Please answer likewise for CCNc1ncc(-c2ccc(Oc3ccc(NC(=O)Nc4cc(C(F)(F)F)cnc4-c4ccc(C)c(C)c4)cn3)cc2)s1 [Example 34]
a: 75

q: Could you do the same for CCCNc1ncc(-c2ccc(Oc3ncc(NC(=O)Nc4cc(C(F)(F)F)ccc4S(=O)(=O)N(C)C)cn3)cc2)s1 [Example 85-225] , please?
a: 94

q: Also Cc1cccc(-c2ncc(C(F)(F)F)cc2NC(=O)Nc2cnc(Oc3ccc(-c4cnc(N5CCCC5=O)s4)cc3)nc2)c1 [Example 57] , if possible.
a: 78

q: Entry to check: CCCNc1ncc(-c2ccc(Oc3ncc(NC(=O)Nc4cc(F)ccc4F)cn3)cc2)s1 [Example 85-209]
a: 81

Next compound, please.
q: Give the measured inhibition in vivo at 1 mg/kg of CCCNc1ncc(-c2ccc(Oc3ncc(NC(=O)Nc4cc(C(F)(F)F)ccc4Cl)cn3)cc2)s1 [Example 85-117] .
a: 74

---

Listed next: entries and their corresponding IC50.
Target: TrkA (Homo sapiens (Human), UniProt P04629)
Sequence (P04629 33-796): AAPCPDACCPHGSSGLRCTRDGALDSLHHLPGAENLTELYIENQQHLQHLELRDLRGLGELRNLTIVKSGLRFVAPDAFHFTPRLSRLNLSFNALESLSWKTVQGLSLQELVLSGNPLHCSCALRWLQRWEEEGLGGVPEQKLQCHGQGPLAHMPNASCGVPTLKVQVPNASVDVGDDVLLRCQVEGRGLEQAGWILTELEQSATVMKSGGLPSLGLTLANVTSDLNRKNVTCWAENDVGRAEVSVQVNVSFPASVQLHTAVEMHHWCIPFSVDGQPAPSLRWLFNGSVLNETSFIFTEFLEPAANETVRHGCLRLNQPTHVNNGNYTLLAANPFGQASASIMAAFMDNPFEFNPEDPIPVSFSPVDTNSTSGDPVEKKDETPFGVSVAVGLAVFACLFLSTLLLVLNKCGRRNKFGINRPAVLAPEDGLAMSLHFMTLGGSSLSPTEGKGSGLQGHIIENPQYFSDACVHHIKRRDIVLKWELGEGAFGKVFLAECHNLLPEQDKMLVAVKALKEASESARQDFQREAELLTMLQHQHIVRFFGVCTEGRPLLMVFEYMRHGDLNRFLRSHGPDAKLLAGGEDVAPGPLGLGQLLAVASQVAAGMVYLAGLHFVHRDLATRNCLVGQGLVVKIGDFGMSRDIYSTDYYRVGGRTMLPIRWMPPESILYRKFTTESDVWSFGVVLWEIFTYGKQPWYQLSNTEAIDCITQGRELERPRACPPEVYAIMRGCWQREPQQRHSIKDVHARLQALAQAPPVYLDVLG
Experiment: TrkA kinase-inhibiting activity using human TrkA expressing cells (CellSenser TrkA-NFAT-bla CHO-K1, NGF-stimulated reporter assay)
Assay type: cell-based
Details: CHO-K1 cells expressing human TrkA and NFAT-bla; NGF 50 ng/ml; read-out: TrkA inhibitory activity (IC50; μM)
Answer format: numeric, µM implied, no suffix.

A selection of reference data follows.
q: // IC50 lookup, key: CCNc1ncc(-c2ccc(Oc3ncc(NC(=O)Nc4cc(C(F)(F)F)cnc4Oc4ccccc4)cn3)cc2)s1 [Example 48]
a: 0.01

q: Do the same for Cc1cccc(-c2ncc(C(F)(F)F)cc2NC(=O)Nc2cnc(Oc3ccc(-c4cnc(N5CCCC5=O)s4)cc3)nc2)c1 [Example 57] please
a: 0.003

q: Also CCCNc1ncc(-c2ccc(Oc3ncc(NC(=O)Nc4cc(C(F)(F)F)ccc4S(=O)(=O)N(C)C)cn3)cc2)s1 [Example 85-225] , if possible.
a: 0.004

q: Next up: Cc1ccccc1-n1nc(C(C)(F)F)cc1NC(=O)Nc1cnc(Oc2ccc(-c3cnc(N4CCCC4=O)s3)cc2)nc1 [Example 72-3]
a: 0.018

q: For O=C(Nc1cnc(Oc2ccc(-c3cnc(N4CCCC4=O)s3)cc2)nc1)Nc1cc(C2CC2)nn1-c1ccccc1 [Example 72-7] then?
a: 0.033

Continuing:
q: Quick check: IC50 of CCNc1ncc(-c2ccc(Oc3ncc(NC(=O)Nc4cc(C(F)(F)F)cnc4-c4ccc(C)cc4)cn3)cc2)s1 [Example 23] ?
a: 0.004

q: Please do the same for CC(C)(C)c1cc(NC(=O)Nc2cnc(Oc3ccc(-c4cnc(N5CCCC5=O)s4)cc3)nc2)n(-c2ccc(S(N)(=O)=O)cc2)n1 [Example 66-72] as well.
a: 0.032

q: Continue with CCCNc1ncc(-c2ccc(Oc3ncc(NC(=O)Nc4cc(C(F)(F)F)ccc4Cl)cn3)cc2)s1 [Example 85-117]
a: 0.002

q: Ok, now Cc1ccc(-n2nc(C(C)(C)C)cc2NC(=O)Nc2cnc(Oc3ccc(-c4cnc(N5CCCC5=O)s4)cc3)nc2)cc1C [Example 65-1]
a: 0.002

---

Target: KDR (Homo sapiens (Human))
Sequence (P35968 20-1356): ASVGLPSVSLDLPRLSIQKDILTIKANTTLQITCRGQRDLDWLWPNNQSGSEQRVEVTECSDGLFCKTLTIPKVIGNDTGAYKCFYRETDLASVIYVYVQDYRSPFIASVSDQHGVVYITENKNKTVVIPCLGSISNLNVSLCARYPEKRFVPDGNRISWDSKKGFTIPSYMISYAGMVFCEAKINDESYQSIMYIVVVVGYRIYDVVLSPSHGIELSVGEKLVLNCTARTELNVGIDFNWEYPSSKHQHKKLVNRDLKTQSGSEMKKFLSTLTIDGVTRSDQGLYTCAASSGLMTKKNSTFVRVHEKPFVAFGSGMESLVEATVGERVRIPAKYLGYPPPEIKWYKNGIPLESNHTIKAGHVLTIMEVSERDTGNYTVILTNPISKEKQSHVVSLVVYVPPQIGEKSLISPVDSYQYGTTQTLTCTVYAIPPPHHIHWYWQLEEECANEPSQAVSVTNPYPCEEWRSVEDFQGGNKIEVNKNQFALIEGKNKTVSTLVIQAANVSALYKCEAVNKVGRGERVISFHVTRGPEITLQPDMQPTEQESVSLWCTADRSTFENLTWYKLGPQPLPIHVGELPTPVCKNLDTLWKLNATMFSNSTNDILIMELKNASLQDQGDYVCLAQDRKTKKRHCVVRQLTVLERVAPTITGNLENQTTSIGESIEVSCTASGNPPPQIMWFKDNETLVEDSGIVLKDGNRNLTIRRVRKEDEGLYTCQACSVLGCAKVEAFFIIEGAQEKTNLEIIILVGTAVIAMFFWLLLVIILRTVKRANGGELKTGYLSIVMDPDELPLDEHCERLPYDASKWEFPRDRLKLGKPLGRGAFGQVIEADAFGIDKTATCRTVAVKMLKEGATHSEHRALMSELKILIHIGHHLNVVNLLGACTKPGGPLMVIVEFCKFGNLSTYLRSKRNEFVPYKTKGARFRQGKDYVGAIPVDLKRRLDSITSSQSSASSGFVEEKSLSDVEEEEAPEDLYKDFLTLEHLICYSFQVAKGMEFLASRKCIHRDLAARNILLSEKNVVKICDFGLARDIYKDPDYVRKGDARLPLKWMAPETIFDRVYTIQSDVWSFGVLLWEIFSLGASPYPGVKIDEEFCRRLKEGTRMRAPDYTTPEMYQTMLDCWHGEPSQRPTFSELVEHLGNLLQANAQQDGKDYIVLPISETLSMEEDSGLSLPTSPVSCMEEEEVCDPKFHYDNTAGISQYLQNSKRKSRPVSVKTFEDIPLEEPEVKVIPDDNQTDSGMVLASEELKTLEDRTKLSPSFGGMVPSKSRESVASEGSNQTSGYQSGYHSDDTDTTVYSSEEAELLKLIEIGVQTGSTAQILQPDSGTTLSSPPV
Test: Enzyme inhibition activity test for kinases other than Trk (selectivity test): KDR
Assay type: biochemical
Conditions: test concentration 3 μM; read-out: Inhibition Rate (%) KDR
Entries annotated with measured inhibition at 3 µM
Use % as the unit, but write only the number.

q: For the compound "Cc1cccc(-c2ncc(C(F)(F)F)cc2NC(=O)Nc2cnc(Oc3ccc(-c4cnc(N5CCCC5=O)s4)cc3)nc2)c1" , what inhibition at 3 µM is on record?
a: 0

Next:
q: Any idea what inhibition at 3 µM was measured for "O=C(Nc1cnc(Oc2ccc(-c3cnc(N4CCCC4=O)s3)cc2)nc1)Nc1cc(C(F)(F)F)cnc1-c1ccccc1" ?
a: 2.4

q: Try "O=C(Nc1cnc(Oc2ccc(-c3cnc(N4CCCC4=O)s3)cc2)nc1)Nc1cc(C(F)(F)F)ccc1-c1cccnc1" next.
a: 5.2

q: // repeat for "CCCNc1ncc(-c2ccc(Oc3ncc(NC(=O)Nc4cc(C(F)(F)F)ccc4Cl)cn3)cc2)s1" and report
a: 0

q: One more compound: "CCNc1ncc(-c2ccc(Oc3ncc(NC(=O)Nc4cc(C(F)(F)F)cnc4-c4ccc(C)cc4)cn3)cc2)s1"
a: 15

---

Target: c-Met (Homo sapiens (Human))
Sequence (P08581 25-1390): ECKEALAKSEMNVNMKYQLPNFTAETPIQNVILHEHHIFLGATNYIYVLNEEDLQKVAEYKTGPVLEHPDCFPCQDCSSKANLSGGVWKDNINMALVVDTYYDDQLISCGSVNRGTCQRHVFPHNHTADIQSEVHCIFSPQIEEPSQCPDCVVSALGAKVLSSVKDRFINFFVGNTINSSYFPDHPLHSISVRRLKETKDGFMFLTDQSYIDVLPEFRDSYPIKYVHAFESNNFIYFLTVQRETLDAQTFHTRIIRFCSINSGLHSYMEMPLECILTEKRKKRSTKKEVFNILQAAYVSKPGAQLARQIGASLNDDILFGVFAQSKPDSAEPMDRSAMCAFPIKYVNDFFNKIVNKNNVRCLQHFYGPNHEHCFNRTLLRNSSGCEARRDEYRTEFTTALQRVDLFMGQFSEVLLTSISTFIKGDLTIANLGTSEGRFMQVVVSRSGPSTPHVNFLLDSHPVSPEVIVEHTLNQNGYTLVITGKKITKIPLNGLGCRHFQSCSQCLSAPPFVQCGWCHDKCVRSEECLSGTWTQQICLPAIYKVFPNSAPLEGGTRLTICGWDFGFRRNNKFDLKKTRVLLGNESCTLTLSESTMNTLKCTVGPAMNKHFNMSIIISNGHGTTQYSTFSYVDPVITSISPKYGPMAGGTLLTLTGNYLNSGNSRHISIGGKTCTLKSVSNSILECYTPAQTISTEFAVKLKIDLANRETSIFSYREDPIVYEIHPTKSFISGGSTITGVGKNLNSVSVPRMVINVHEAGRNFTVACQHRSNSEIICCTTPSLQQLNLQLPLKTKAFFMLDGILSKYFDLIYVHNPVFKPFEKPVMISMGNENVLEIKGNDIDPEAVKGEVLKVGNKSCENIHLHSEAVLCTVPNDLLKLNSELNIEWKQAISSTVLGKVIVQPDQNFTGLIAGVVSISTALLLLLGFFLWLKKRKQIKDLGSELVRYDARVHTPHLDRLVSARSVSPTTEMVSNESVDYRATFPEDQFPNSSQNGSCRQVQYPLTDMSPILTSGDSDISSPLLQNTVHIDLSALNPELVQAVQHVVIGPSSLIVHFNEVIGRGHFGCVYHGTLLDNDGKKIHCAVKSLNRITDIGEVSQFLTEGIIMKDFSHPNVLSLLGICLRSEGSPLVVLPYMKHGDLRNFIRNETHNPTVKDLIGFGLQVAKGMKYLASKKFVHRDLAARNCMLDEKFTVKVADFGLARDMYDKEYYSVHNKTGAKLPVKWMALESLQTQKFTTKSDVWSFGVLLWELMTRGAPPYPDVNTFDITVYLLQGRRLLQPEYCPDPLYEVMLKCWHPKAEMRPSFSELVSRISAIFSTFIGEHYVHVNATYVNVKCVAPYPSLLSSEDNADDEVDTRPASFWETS
Experiment: Enzyme inhibition activity test for kinases other than Trk (selectivity test): c-Met
Format: biochemical
Conditions: test concentration 3 μM; read-out: Inhibition Rate (%) c-Met
Description: A test substance (present compound or comparative compound) was dissolved in dimethylsulfoxide and further diluted with dimethylsulfoxide to prepare a solution having a concentration of 100 times the test concentration of 3 μM. The solution was further diluted to 25-fold with an assay buffer (20 mM HEPES, 0.01% Triton X-100, 2 mM DTT, pH 7.5) to obtain a test substance solution. In a similar manner a positive control substance solution was prepared with a positive control substance. […]
Overview of reported inhibition at 3 µM across a group of compounds:
Give your result in % as a bare value.

q: So what does the record say about inhibition at 3 µM for "O=C(Nc1cnc(Oc2ccc(-c3cnc(N4CCCC4=O)s3)cc2)nc1)Nc1cc(C(F)(F)F)cnc1-c1ccccc1" ?
a: 0

q: Another compound to check: "CCNc1ncc(-c2ccc(Oc3ncc(NC(=O)Nc4cc(C(F)(F)F)cnc4-c4ccc(C)cc4)cn3)cc2)s1"
a: 6.5

q: Same again, this time with "Cc1cccc(-c2ncc(C(F)(F)F)cc2NC(=O)Nc2cnc(Oc3ccc(-c4cnc(N5CCCC5=O)s4)cc3)nc2)c1"
a: 4.9

q: Same thing, different compound: "CCCNc1ncc(-c2ccc(Oc3ncc(NC(=O)Nc4cc(C(F)(F)F)ccc4Cl)cn3)cc2)s1"
a: 0

q: // same read-out, input: "O=C(Nc1cnc(Oc2ccc(-c3cnc(N4CCCC4=O)s3)cc2)nc1)Nc1cc(C(F)(F)F)ccc1-c1cccnc1"
a: 11

---

Molecular target: TrkA (Homo sapiens (Human))
Test: Measurement of TrkA enzyme-inhibiting activity (LanthaScreen TR-FRET kinase assay)
Assay type: biochemical
Conditions: final ATP 150 μM, read-out: TrkA inhibitory activity (IC50; μM)
IC50 reference
The answer is to be given in µM; state only the numeric part.

q: IC50 lookup needed for Cc1ccccc1-n1nc(C(C)(F)F)cc1NC(=O)Nc1cnc(Oc2ccc(-c3cnc(N4CCCC4=O)s3)cc2)nc1 [Example 72-3] , thanks.
a: 0.06

q: Now consider COC(=O)c1cccc(-n2nc(C(C)(C)C)cc2NC(=O)Nc2cnc(Oc3ccc(-c4cnc(N5CCCC5=O)s4)cc3)nc2)c1 [Example 66-27] and answer again.
a: 0.13

q: Next record, please: O=C(Nc1cnc(Oc2ccc(-c3cnc(N4CCCCC4=O)s3)cc2)nc1)Nc1cc(C(F)(F)F)cnc1-c1ccc(C(F)(F)F)nc1 [Example 9]
a: 0.16

Continuing:
q: Which IC50 is listed for Cc1ccccc1-n1nc(C(F)(F)F)cc1NC(=O)Nc1cnc(Oc2ccc(-c3cnc(N4CCCC4=O)s3)cc2)nc1 [Example 72-1] ?
a: 0.05

q: # iterate: Cn1ncc2cc(-n3nc(C(C)(C)C)cc3NC(=O)Nc3cnc(Oc4ccc(-c5cnc(N6CCCC6=O)s5)cc4)nc3)ccc21 [Example 71]
a: 0.03

q: Entry CC(=O)Nc1ccc(-n2nc(C(C)(C)C)cc2NC(=O)Nc2cnc(Oc3ccc(-c4cnc(N5CCCC5=O)s4)cc3)nc2)cc1 [Example 66-28] please
a: 0.08

q: Same lookup for CCNc1ncc(-c2ccc(Oc3ncc(NC(=O)Nc4cc(C(F)(F)F)cnc4-c4ccc(C)cc4)cn3)cc2)s1 [Example 23] , please.
a: 0.09

q: Ok, now Cc1ccc(-c2ncc(C(F)(F)F)cc2NC(=O)Nc2cnc(Oc3ccc(-c4cnc(N5CCCCCC5=O)s4)cc3)nc2)cc1C [Example 59]
a: 0.19

q: Repeat for the following compound: CCNc1ncc(-c2ccc(Oc3ccc(NC(=O)Nc4cc(C(F)(F)F)cnc4-c4ccc(C)c(C)c4)cn3)cc2)s1 [Example 34]
a: 0.18
